Source listed as patent US20190169140A1.

STUDY_TARGET: CYP1A2 (Homo sapiens, UniProt P05177)
Sequence (P05177 1-516): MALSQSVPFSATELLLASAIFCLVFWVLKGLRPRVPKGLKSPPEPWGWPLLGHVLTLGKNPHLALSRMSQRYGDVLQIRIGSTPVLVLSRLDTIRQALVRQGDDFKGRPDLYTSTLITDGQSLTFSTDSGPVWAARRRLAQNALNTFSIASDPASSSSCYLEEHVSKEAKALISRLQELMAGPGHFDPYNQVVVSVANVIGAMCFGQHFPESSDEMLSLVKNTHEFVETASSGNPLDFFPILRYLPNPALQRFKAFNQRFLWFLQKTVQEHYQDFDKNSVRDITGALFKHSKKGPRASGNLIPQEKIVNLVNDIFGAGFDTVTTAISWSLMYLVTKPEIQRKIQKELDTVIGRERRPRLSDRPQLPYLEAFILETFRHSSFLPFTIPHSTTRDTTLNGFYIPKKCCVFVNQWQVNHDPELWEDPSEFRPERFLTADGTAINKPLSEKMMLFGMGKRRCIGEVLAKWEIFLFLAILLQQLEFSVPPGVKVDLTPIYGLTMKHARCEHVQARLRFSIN
MEASURED_ATTRIBUTE: IC50 (µM)
Numbers only, in µM.

### Prompt Indicate its recorded IC50; the molecule in question is CC(=O)NCCSc1nonc1/C(=N/O)Nc1ccc(F)c(Br)c1
### Response 13

----------
TEST_NAME: Test for permeability across MDR1
Type: in vitro ADME
EXPERIMENTAL_CONTEXT: dog, MDCK-MDR1
MEASURED_ATTRIBUTE: Papp A→B at 150 min, 2 µM (×10⁻⁶ cm/s)
Numbers only, in ×10⁻⁶ cm/s.

{"COMPOUND": "NS(=O)(=O)NCCOc1nonc1/C(=N/O)Nc1ccc(F)c(Br)c1", "UNITS_SYMBOL": "×10⁻⁶ cm/s", "Papp A→B at 150 min, 2 µM": 1.76}
{"COMPOUND": "NC(=O)NCCSc1nonc1/C(=N/O)Nc1ccc(F)c(Br)c1", "UNITS_SYMBOL": "×10⁻⁶ cm/s", "Papp A→B at 150 min, 2 µM": 3.79}
{"COMPOUND": "NS(=O)(=O)NCCSc1nonc1/C(=N/O)Nc1ccc(F)c(Br)c1", "UNITS_SYMBOL": "×10⁻⁶ cm/s", "Papp A→B at 150 min, 2 µM": 3.2}

Take each entry in turn and give its Papp A→B at 150 min, 2 µM.
1. CC(=O)NCCSc1nonc1/C(=N/O)Nc1ccc(F)c(Br)c1
2. NS(=O)(=O)NCCNc1nonc1C(=NO)Nc1ccc(F)c(Br)c1 [Compound 360, INCB024360, reference compound]
3. CCS(=O)(=O)NCCSc1nonc1/C(=N/O)Nc1ccc(F)c(Br)c1

### Response
1: 12.5; 2: 1.61; 3: 6.78

----------
TEST_NAME: Pharmacokinetics experiment of mice in vivo, single intravenous injection
Set-up: species or system male CD-1 mice
EXPERIMENTAL_CONTEXT: male, CD-1, plasma; Mouse PK, IV 1 mg/kg
Field: Vd. Provide a value for each of the compounds that follow.
Answers are plain numbers, in L/kg.

{"TEST_SMILES": "CC(=O)NCCSc1nonc1/C(=N/O)Nc1ccc(F)c(Br)c1", "Vd [L/kg]": 2.66}

### Prompt Specify reported Vd for the compound shown: NC(=O)NCCSc1nonc1/C(=N/O)Nc1ccc(F)c(Br)c1
### Response 4.85

----------
STUDY_TARGET: recombinant human IDO1 enzyme (Homo sapiens, UniProt P14902)
Sequence (P14902 whole entry): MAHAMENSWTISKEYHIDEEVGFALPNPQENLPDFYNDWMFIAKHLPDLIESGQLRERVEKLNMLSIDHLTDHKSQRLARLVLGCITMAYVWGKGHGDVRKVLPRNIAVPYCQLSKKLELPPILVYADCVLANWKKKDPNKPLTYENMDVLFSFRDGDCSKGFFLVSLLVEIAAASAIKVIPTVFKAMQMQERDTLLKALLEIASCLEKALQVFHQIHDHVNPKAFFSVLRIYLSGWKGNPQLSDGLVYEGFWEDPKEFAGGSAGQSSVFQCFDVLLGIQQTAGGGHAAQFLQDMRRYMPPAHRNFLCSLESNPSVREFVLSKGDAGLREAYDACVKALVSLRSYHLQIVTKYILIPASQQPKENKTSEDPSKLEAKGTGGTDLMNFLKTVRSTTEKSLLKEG
TEST_NAME: Test of hIDO1 for enzymatic activity in vitro (NFK Green fluorescence)
MEASURED_ATTRIBUTE: IC50 (nM)
Give bare numbers, in nM.

Solved entries:
{"TEST_SMILES": "O=S(=O)(NCCOc1nonc1/C(=N/O)Nc1ccc(F)c(Br)c1)c1ccccc1", "STUDY_TARGET": "recombinant human IDO1 enzyme (Homo sapiens, UniProt P14902)", "MEASUREMENT": 1300}
{"TEST_SMILES": "O=C(CSc1nonc1/C(=N/O)Nc1ccc(F)c(Br)c1)NC1CC1", "STUDY_TARGET": "recombinant human IDO1 enzyme (Homo sapiens, UniProt P14902)", "MEASUREMENT": 95.7}
{"TEST_SMILES": "N#C/N=C(\\N)NCCSc1nonc1/C(=N/O)Nc1ccc(F)c(Br)c1", "STUDY_TARGET": "recombinant human IDO1 enzyme (Homo sapiens, UniProt P14902)", "MEASUREMENT": 97.3}
{"TEST_SMILES": "NS(=O)(=O)NCCOc1nonc1C(=NO)Nc1ccc(F)c(C(F)F)c1", "STUDY_TARGET": "recombinant human IDO1 enzyme (Homo sapiens, UniProt P14902)", "MEASUREMENT": 149}
{"TEST_SMILES": "NS(=O)(=O)NCCOc1nonc1/C(=N/O)Nc1ccc(Cl)c(C(F)(F)F)c1", "STUDY_TARGET": "recombinant human IDO1 enzyme (Homo sapiens, UniProt P14902)", "MEASUREMENT": 4830}
{"TEST_SMILES": "O=C(NCCSc1nonc1/C(=N/O)Nc1ccc(F)c(Br)c1)C(F)F", "STUDY_TARGET": "recombinant human IDO1 enzyme (Homo sapiens, UniProt P14902)", "MEASUREMENT": 69.4}
{"TEST_SMILES": "N#Cc1cc(N/C(=N\\O)c2nonc2OCCNS(N)(=O)=O)ccc1F", "STUDY_TARGET": "recombinant human IDO1 enzyme (Homo sapiens, UniProt P14902)", "MEASUREMENT": 616}

Moving on to another compound below.
### Prompt Entry O=C1NCCN1CCOc1nonc1/C(=N/O)Nc1ccc(F)c(Br)c1 needs its IC50 filled in; supply it.
### Response 594

----------
So I've got a bunch of compounds here, and I need their IC50 values.
STUDY_TARGET: IDO1 enzyme in Hela cells (Homo sapiens, UniProt P14902)
Construct: endogenous in cells
TEST_NAME: Test of hIDO1 for cytological activity (Hela cell kynurenine by LCMS, interferon-γ induced)
EXPERIMENTAL_CONTEXT: interferon-γ 100 ng/ml, 20 hours
Protocol: 2. Test of hIDO1 for Cytological Activity Changes in Hela cell kynurenine were detected by an LCMS method. With an IC50 value of a compound as an index, an inhibitory effect of the compound on IDO1 enzyme was evaluated. The culture medium, trypsin, and DPBS were preheated in water bath at 37° C. […] 10 μL of recombinant human interferon-γ was added to result in a final concentration of 100 ng/ml, to induce expression of IDO1. […] A content of kynurenine was detected through LCMS. […]
Answers are plain numbers, in nM.

Below are worked cases with known answers.
{"TEST_SMILES": "N=C(N)NCCSc1nonc1/C(=N/O)Nc1ccc(F)c(Br)c1", "MEASUREMENT": 105}
{"TEST_SMILES": "CNC(=O)CCSc1nonc1/C(=N/O)Nc1ccc(F)c(Br)c1", "MEASUREMENT": 13.9}
{"TEST_SMILES": "NCCOc1nonc1/C(=N/O)Nc1ccc(F)c(Br)c1", "MEASUREMENT": 123}
{"TEST_SMILES": "CCS(=O)(=O)NCCSc1nonc1/C(=N/O)Nc1ccc(F)c(Br)c1", "MEASUREMENT": 3.97}

Hey, quick one: what's IC50 for each of these?
1. O=CNCCSc1nonc1/C(=N/O)Nc1ccc(F)c(Br)c1
2. NC(=O)CCSc1nonc1/C(=N/O)Nc1ccc(F)c(Br)c1

### Response
14.8
70.8

----------
Assignment: determine reported IC50 for the given molecules.
STUDY_TARGET: recombinant human IDO1 enzyme (Homo sapiens, UniProt P14902)
TEST_NAME: Test of hIDO1 for enzymatic activity in vitro (NFK Green fluorescence)
Give bare numbers, in nM.

{"MOLECULE": "O=C(CSc1nonc1/C(=N/O)Nc1ccc(F)c(Br)c1)NO [Compound 0260]", "STUDY_TARGET": "recombinant human IDO1 enzyme (Homo sapiens, UniProt P14902)", "MEASURED_ATTRIBUTE": "IC50", "MEASUREMENT": 74.6}

Answer for every listed entry: what is its IC50? The entries follow.
1. NS(=O)(=O)NCCCOc1nonc1/C(=N/O)Nc1ccc(F)c(Br)c1 [Compound 0118]
2. COc1nonc1/C(=N/O)Nc1ccc(F)c(Br)c1 [Compound 0052]
3. CC(CNS(N)(=O)=O)Oc1nonc1/C(=N/O)Nc1ccc(F)c(Br)c1 (centres unmarked) [Compound 0119]
4. COc1nonc1/C(=N/O)Nc1ccc(F)c(C#N)c1 [Compound 0103]
5. NC(=O)NCCSc1nonc1/C(=N/O)Nc1cccc(I)c1 [Compound 0309]
6. O=CNCCOc1nonc1/C(=N/O)Nc1ccc(F)c(Br)c1 [Compound 0153]
7. CNS(=O)(=O)NCCSc1nonc1/C(=N/O)Nc1ccc(F)c(Br)c1 [Compound 0240]

### Response
1. 55.3
2. 109
3. 2070
4. 537
5. 54.5
6. 153
7. 128
